src = the supplement of paper PMC6555819

# System: LXRb:RXRa (NR concentration 270 nM, RXRa partner concentration 90 nM)
# Protocol text: PBM binding z-score (relative to random genomic background probes); higher = stronger binding; sequences stand for … in GC…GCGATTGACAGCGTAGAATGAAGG
# binarize PBM binding z-score: threshold 2 inclusive, high side yes, low side no

>  <Seq text>
GGAACGAGGGCATTCGCGTTGATAGCATGGCGAT

>  <Label value>
no

$$$$
>  <Seq text>
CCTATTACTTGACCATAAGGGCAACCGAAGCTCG

>  <Label value>
no

$$$$
>  <Seq text>
CAAACTAGGTCAAGAGGTCAAAGTGCGCTTCCCG

>  <Label value>
yes

$$$$
>  <Seq text>
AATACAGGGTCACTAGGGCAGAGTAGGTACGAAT

>  <Label value>
yes

$$$$
>  <Seq text>
CCTACTGGACCACGAAAGGTCATTGATTCAGTGA

>  <Label value>
yes

$$$$
>  <Seq text>
CCTACTGGGCCACGAAAGGTCGTTGATTCAGTGA

>  <Label value>
no

$$$$

====

# System: RARa homodimer (NR concentration 270 nM)
# Protocol text: PBM binding z-score (relative to random genomic background probes); higher = stronger binding; sequences stand for … in GC…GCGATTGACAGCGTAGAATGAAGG

>  <Seq text>
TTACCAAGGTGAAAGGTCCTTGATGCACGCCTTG

>  <PBM binding z-score>
-0.838

$$$$
>  <Seq text>
ATCGAAAGGTCGACGAGGTGAGTTTACACCGTTT

>  <PBM binding z-score>
0.024

$$$$
>  <Seq text>
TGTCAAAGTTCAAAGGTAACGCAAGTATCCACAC

>  <PBM binding z-score>
1.84

$$$$
>  <Seq text>
CTCGAAAGGTCGTGCTCAGGTGAGAATACCAAAC

>  <PBM binding z-score>
0.317

$$$$
>  <Seq text>
CGTCCAAGTTCAACTAAGGTAACGTAAAGCACGC

>  <PBM binding z-score>
0.942

$$$$
>  <Seq text>
GCGACTGGGGCATCGGCAGGTTACCATAACTTAA

>  <PBM binding z-score>
-0.205

$$$$
>  <Seq text>
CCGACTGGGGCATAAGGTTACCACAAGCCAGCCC

>  <PBM binding z-score>
-0.43

$$$$
>  <Seq text>
GTACCAAGGTGAATAGCTCGTTGATGAGTAGGCG

>  <PBM binding z-score>
-0.272

$$$$
>  <Seq text>
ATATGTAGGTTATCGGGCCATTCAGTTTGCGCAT

>  <PBM binding z-score>
1.09

$$$$
>  <Seq text>
CCAGACAGGTGAGAAGGTACCTCAGCCTCGATTA

>  <PBM binding z-score>
-0.214

$$$$
>  <Seq text>
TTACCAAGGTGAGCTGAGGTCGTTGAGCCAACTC

>  <PBM binding z-score>
-0.816

$$$$
>  <Seq text>
AATACAGGGTCACTAGTCCAGAGTAGGTACGAAT

>  <PBM binding z-score>
1.03

$$$$

====

# Test system: FXR:RXRa (NR concentration 270 nM, RXRa partner concentration 90 nM)
# Protocol text: PBM binding z-score (relative to random genomic background probes); higher = stronger binding; sequences stand for … in GC…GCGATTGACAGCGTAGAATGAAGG
Reported endpoint: PBM binding z-score

>  <Seq text>
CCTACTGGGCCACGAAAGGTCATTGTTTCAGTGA

>  <Reported endpoint>
PBM binding z-score

>  <Recorded result>
3.44

$$$$
>  <Seq text>
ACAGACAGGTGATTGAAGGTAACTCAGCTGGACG

>  <Reported endpoint>
PBM binding z-score

>  <Recorded result>
0.407

$$$$
>  <Seq text>
CGAACTAGGTCATTGACAGGACAGTGACTAGTAA

>  <Reported endpoint>
PBM binding z-score

>  <Recorded result>
4.31

$$$$
>  <Seq text>
CGTCCAAGGTCAGAGAGGTCAGCGAATGCCGAGT

>  <Reported endpoint>
PBM binding z-score

>  <Recorded result>
6.38

$$$$
>  <Seq text>
GCATATAGGTAATACAAGGTGGAAGTCCGATTGT

>  <Reported endpoint>
PBM binding z-score

>  <Recorded result>
0.184

$$$$
>  <Seq text>
CCTAGTTGGTCAAGGTCAAACACGCTATAGGTAC

>  <Reported endpoint>
PBM binding z-score

>  <Recorded result>
5.04

$$$$

====

# Tested on: FXR:RXRa (NR concentration 270 nM, RXRa partner concentration 90 nM)
# Protocol text: PBM binding z-score (relative to random genomic background probes); higher = stronger binding; sequences stand for … in GC…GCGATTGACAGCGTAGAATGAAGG
Quick reference: PBM binding z-score of the listed items.

>  <Seq text>
TTACCAAGGTGAAGGTCGTTTATCCCTCTGTAGA

>  <PBM binding z-score>
1.45

$$$$
>  <Seq text>
ATCTCTAGGCAAGACTCAGTTCAGTGAAGAACGC

>  <PBM binding z-score>
-0.14

$$$$
>  <Seq text>
ATACCAATGTGATCGTGAGGTCGTTGATACTAAC

>  <PBM binding z-score>
1.13

$$$$
>  <Seq text>
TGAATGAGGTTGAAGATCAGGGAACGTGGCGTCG

>  <PBM binding z-score>
0.0849

$$$$
>  <Seq text>
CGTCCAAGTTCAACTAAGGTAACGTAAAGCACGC

>  <PBM binding z-score>
4.27

$$$$
>  <Seq text>
AGAACGGGGGCACGCTGAGTTGATAGCAGAGTAG

>  <PBM binding z-score>
2.62

$$$$
>  <Seq text>
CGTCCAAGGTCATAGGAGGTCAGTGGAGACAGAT

>  <PBM binding z-score>
7.92

$$$$
>  <Seq text>
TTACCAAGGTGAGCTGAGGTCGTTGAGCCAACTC

>  <PBM binding z-score>
1.91

$$$$
>  <Seq text>
AGAATGAGGTTATAGGTAGATCAGGGAAGAAAGT

>  <PBM binding z-score>
2.06

$$$$
>  <Seq text>
TTAATGAGGTTAAAGATCAGGGAACGTGGCGTCG

>  <PBM binding z-score>
3.44

$$$$
>  <Seq text>
GCTAGCAGGCCATTTGGGTCACTCCATGACGGGC

>  <PBM binding z-score>
-0.16

$$$$
>  <Seq text>
AGACAAAGTTCATCTAGGTAACGTAAGATATGCT

>  <PBM binding z-score>
6.83

$$$$
>  <Seq text>
CCAGGCAGGTGAGAAGGTAACTCAGCCTCGATTA

>  <PBM binding z-score>
-0.311

$$$$
>  <Seq text>
GCGCCTGGGGCAAAGCAGGTTACCATAAGGTTGG

>  <PBM binding z-score>
0.19

$$$$
>  <Seq text>
CGAACGAGGGCATGAGTTGATAACAAATGCCGAT

>  <PBM binding z-score>
0.424

$$$$
>  <Seq text>
AGAACGATGGCAATGAGTTGATAGCACGGGTGGC

>  <PBM binding z-score>
-0.517

$$$$
>  <Seq text>
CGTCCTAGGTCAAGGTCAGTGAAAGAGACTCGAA

>  <PBM binding z-score>
5.87

$$$$
>  <Seq text>
ATATGTAGGTTAGTTGGGGTCATTCAGACTAGGC

>  <PBM binding z-score>
5

$$$$
>  <Seq text>
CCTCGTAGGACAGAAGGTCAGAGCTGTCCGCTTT

>  <PBM binding z-score>
1.05

$$$$
>  <Seq text>
CCTACTGGGCCATCAGGTCATTCATATCAACGTT

>  <PBM binding z-score>
1.41

$$$$
>  <Seq text>
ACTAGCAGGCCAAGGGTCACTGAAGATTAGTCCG

>  <PBM binding z-score>
3.07

$$$$
>  <Seq text>
CCGAGTAGGTTATGGGGCATTCACGCAACGGTGA

>  <PBM binding z-score>
0.165

$$$$
>  <Seq text>
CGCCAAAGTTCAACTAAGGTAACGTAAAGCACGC

>  <PBM binding z-score>
5.71

$$$$
>  <Seq text>
TTACGAAGGTGAGCTGAGGTCGTTGATCCAACTC

>  <PBM binding z-score>
2.65

$$$$
>  <Seq text>
TCATATAGGTAAATGCTGGGTGAAAGTCCGATCT

>  <PBM binding z-score>
1.03

$$$$
>  <Seq text>
ACTTACGGGTCAACGCGGTTATAGCACGCGTATA

>  <PBM binding z-score>
6.63

$$$$
>  <Seq text>
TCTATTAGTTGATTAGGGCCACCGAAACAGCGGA

>  <PBM binding z-score>
0.951

$$$$
>  <Seq text>
AGAAGGAGGGCAATGAGTTGATAGCACGGGTGGC

>  <PBM binding z-score>
0.307

$$$$
>  <Seq text>
CCAGACAGGTGAAAAGTAACTCAGTCTGGTACGC

>  <PBM binding z-score>
-0.306

$$$$
>  <Seq text>
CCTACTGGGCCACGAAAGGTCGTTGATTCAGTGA

>  <PBM binding z-score>
0.933

$$$$
>  <Seq text>
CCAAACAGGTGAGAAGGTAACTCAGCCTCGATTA

>  <PBM binding z-score>
-0.19

$$$$
>  <Seq text>
CAAACTACGTCAAGAGGTCAAAGTCCGCTTCCCG

>  <PBM binding z-score>
5.07

$$$$
>  <Seq text>
CGAACTAGGTCAGAACAGGATAGTGAAGGATGAT

>  <PBM binding z-score>
1.16

$$$$
>  <Seq text>
GCTTGTAGTTCAAGGTTAAGAAAGACTAAGCTAA

>  <PBM binding z-score>
1.52

$$$$
>  <Seq text>
TCGAGTAGGTTAGCAATGGGGCATTCAGCTTTCT

>  <PBM binding z-score>
-0.119

$$$$
>  <Seq text>
TTACCAAGGTGAAGTTCGTTGATCCCTCTGTAGA

>  <PBM binding z-score>
1.07

$$$$
>  <Seq text>
ATCTCTAGGTAAAGATAGTTCCGTGAATGCAAAT

>  <PBM binding z-score>
0.0722

$$$$
>  <Seq text>
ATATGTAGGTTAACGGTCATTCAGGTTGGTTCGC

>  <PBM binding z-score>
2.12

$$$$
>  <Seq text>
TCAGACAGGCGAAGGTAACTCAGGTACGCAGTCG

>  <PBM binding z-score>
0.672

$$$$
>  <Seq text>
ATATGTAGATTAGCTGGGGTCATTCAGACTAGGC

>  <PBM binding z-score>
3.43

$$$$
>  <Seq text>
CCTATTCGTTGACCATAAGGGCAACCGAAGCTCG

>  <PBM binding z-score>
0.737

$$$$
>  <Seq text>
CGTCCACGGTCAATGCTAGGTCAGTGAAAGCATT

>  <PBM binding z-score>
0.638

$$$$
>  <Seq text>
GATACAGGTTCAGCTAGAGGCCAGAGTATGGAAA

>  <PBM binding z-score>
0.427

$$$$
>  <Seq text>
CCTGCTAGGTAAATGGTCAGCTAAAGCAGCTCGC

>  <PBM binding z-score>
-0.299

$$$$
>  <Seq text>
TCTAGTTGGTCACGGAGGTCACGCACGACGGGTA

>  <PBM binding z-score>
3.96

$$$$
>  <Seq text>
TCTATTAGTTGAAGGGCAAGCGACGAGTCCGTTT

>  <PBM binding z-score>
0.609

$$$$
>  <Seq text>
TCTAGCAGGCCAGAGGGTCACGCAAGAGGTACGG

>  <PBM binding z-score>
1.68

$$$$
>  <Seq text>
CCTAGCAGGCCAATCTGGGTCACTCGAGGCTTGA

>  <PBM binding z-score>
-0.0192

$$$$
>  <Seq text>
CGTCAAAGTTCAAGGGAACGTAACAGAAAGCAGC

>  <PBM binding z-score>
6.3

$$$$
>  <Seq text>
CATACAGGGTCAGCTAGGCAAGAGTAGGGACGGC

>  <PBM binding z-score>
4.09

$$$$
>  <Seq text>
GCTATTAGTTGAAAGGGCGACCGAATGATTCTCG

>  <PBM binding z-score>
-0.184

$$$$
